Molecular target: panel of 442 kinases (Homo sapiens, UniProt Q9BWU1)
Construct: purchased KINOMEscan
Sequence (Q9BWU1 whole entry): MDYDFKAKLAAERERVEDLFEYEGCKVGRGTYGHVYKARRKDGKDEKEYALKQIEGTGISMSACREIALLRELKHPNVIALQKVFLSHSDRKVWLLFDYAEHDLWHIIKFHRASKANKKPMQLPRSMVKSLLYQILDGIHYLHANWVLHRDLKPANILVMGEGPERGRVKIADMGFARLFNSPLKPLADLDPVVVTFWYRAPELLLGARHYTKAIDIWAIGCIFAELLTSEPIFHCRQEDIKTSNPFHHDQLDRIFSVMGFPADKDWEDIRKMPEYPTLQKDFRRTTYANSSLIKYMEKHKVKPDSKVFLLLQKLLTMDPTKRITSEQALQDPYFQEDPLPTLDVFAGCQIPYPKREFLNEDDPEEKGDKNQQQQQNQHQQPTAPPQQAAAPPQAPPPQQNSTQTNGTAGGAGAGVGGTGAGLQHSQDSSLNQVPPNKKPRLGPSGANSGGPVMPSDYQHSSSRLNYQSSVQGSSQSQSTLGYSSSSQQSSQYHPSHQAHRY
Assay type: binding
Settings: Compound Concentration 10 µM
measure: KINOMEscan: CDK11

COc1cc(C(=O)N2CCC(N3CCN(C)CC3)CC2)ccc1Nc1ncc2c(n1)N(C1CCCC1)c1ccccc1C(=O)N2C [Compound 25]    87
COc1cc(C(=O)N2CCC(N3CCN(C)CC3)CC2)ccc1Nc1ncc2c(n1)N(C)c1ccccc1C(=O)N2C [15 (LRRK2-IN-1)]    100
CCOc1cc(C(=O)N2CCC(N3CCN(C)CC3)CC2)ccc1Nc1ncc2c(n1)N(C1CCCC1)c1ccccc1C(=O)N2C [Compound 26]    100
COc1cc(C(=O)N2CCC(N3CCN(C)CC3)CC2)ccc1Nc1ncc2c(n1)N1CCc3cccc(c31)C(=O)N2C [Compound 24]    96

* * *

Molecular target: panel of 442 kinases (Homo sapiens)
Construct: purchased KINOMEscan
Format: binding
Details: Compound Concentration 10 µM
measure: KINOMEscan: PIM3

CCOc1cc(C(=O)N2CCC(N3CCN(C)CC3)CC2)ccc1Nc1ncc2c(n1)N(C1CCCC1)c1ccccc1C(=O)N2C [Compound 26]    100
COc1cc(C(=O)N2CCC(N3CCN(C)CC3)CC2)ccc1Nc1ncc2c(n1)N(C1CCCC1)c1ccccc1C(=O)N2C [Compound 25]    78
COc1cc(C(=O)N2CCC(N3CCN(C)CC3)CC2)ccc1Nc1ncc2c(n1)N1CCc3cccc(c31)C(=O)N2C [Compound 24]    67
COc1cc(C(=O)N2CCC(N3CCN(C)CC3)CC2)ccc1Nc1ncc2c(n1)N(C)c1ccccc1C(=O)N2C [15 (LRRK2-IN-1)]    88

* * *

Target: panel of 442 kinases (Homo sapiens, UniProt P00519, H396P)
Construct: purchased KINOMEscan
Type: binding
Design: unit: % Ctrl
Details: Compound Concentration 10 µM
Examples of compounds with documented KINOMEscan: ABL1(H396P)-nonphosphorylated follow.
measure: KINOMEscan: ABL1(H396P)-nonphosphorylated

COc1cc(C(=O)N2CCC(N3CCN(C)CC3)CC2)ccc1Nc1ncc2c(n1)N(C)c1ccccc1C(=O)N2C    100
CCOc1cc(C(=O)N2CCC(N3CCN(C)CC3)CC2)ccc1Nc1ncc2c(n1)N(C1CCCC1)c1ccccc1C(=O)N2C    86
COc1cc(C(=O)N2CCC(N3CCN(C)CC3)CC2)ccc1Nc1ncc2c(n1)N(C1CCCC1)c1ccccc1C(=O)N2C    47
COc1cc(C(=O)N2CCC(N3CCN(C)CC3)CC2)ccc1Nc1ncc2c(n1)N1CCc3cccc(c31)C(=O)N2C    34

* * *

Biological target: panel of 442 kinases (Homo sapiens)
Construct: purchased KINOMEscan
Type: binding
Settings: kinase TEC; compound concentration 10 µM
Examples of compounds with documented % Ctrl, TEC follow.
measure: % Ctrl, TEC (% Ctrl)

COc1cc(C(=O)N2CCC(N3CCN(C)CC3)CC2)ccc1Nc1ncc2c(n1)N(C1CCCC1)c1ccccc1C(=O)N2C    91
COc1cc(C(=O)N2CCC(N3CCN(C)CC3)CC2)ccc1Nc1ncc2c(n1)N1CCc3cccc(c31)C(=O)N2C    100
CCOc1cc(C(=O)N2CCC(N3CCN(C)CC3)CC2)ccc1Nc1ncc2c(n1)N(C1CCCC1)c1ccccc1C(=O)N2C    100
COc1cc(C(=O)N2CCC(N3CCN(C)CC3)CC2)ccc1Nc1ncc2c(n1)N(C)c1ccccc1C(=O)N2C    100
